tested on: DeltatarO mutant; assay: S. aureus survival, RN4220 and DeltatarO strains – OD600, teichoic acid synthesis inhibitors, primary screen (AID 463173); conditions: S. aureus RN4220 wild type/DeltatarO growth, OD600, 18 h, hits give low values, screened at 18.75 µg/mL (by protocol)
In all, about 52,000 compounds went through this assay and about 4,300 (8.3%) were called active. What follows is part of a selection rich in actives, with near analogues and random picks from the rest.
Just a reminder that ties go to label 0: only survival strictly below 60% counts as label 1.

// known answers, use as guide
1) Cc1ccc(-c2noc(CN(C3CCCCC3)S(=O)(=O)c3ccc(C)cc3)n2)cc1 ... label 0
2) CCN(Cc1nc(-c2ccc(OC)c(OC)c2)no1)S(=O)(=O)c1ccc(OC)cc1 ... label 1
3) CCOc1ccc(CCNC(=O)Cn2ccc3cc(S(=O)(=O)N4CCCCC4)ccc32)cc1 ... label 0
4) Cc1cccc(-c2noc(CN(C(C)C)S(=O)(=O)c3ccc(Br)cc3)n2)c1 ... label 1
5) N/C(=N\c1nc2ccccc2o1)NC(=O)/C=C/c1ccco1 ... label 0

Prompt: Lab note: survival threshold 60%. Does this compound come in strictly under it? O=C(NCc1ccc(Cl)cc1)c1ccc2c(c1)NC(=O)C(CS(=O)(=O)Cc1ccccc1Cl)N2 (stereo not given)
Completion: label 0

Prompt: Lab note: survival threshold 60%. Does this compound come in strictly under it? "C=CCn1c(C#N)c(N)sc1=N"
Completion: label 0

Prompt: Lab note: survival threshold 60%. Does this compound come in strictly under it? COc1cc(C2c3c(oc4ccccc4c3=O)C(=O)N2c2ccccn2)cc(OC)c1OC (stereo not given)
Completion: label 0

Prompt: Lab note: survival threshold 60%. Does this compound come in strictly under it? "Cc1cccc(-c2noc(CNC(=O)c3ccco3)n2)c1"
Completion: label 0

Prompt: Lab note: survival threshold 60%. Does this compound come in strictly under it? CCC(c1nnnn1CCc1ccccc1)N(Cc1ccco1)Cc1cc2cc(C)ccc2[nH]c1=O (stereo not given)
Completion: label 0

The values you see were collected from PubChem BioAssay AID463173.
